Assay: NCI Yeast Anticancer Drug Screen. Data for the cln2 rad14 strain (AID 165)
Details: S. cerevisiae cln2 rad14 strain, at 50.0 µM (retest, dose inferred, filed as 5.0)
Experimental: Growth inhibition of yeast strains with defined genetic alterations is measured as a screen for potential anti-cancer activity. Selected strains with alterations in DNA damage repair or cell cycle control were exposed to compounds and growth inhibition was measured relative to vehicle treated controls. The strain used in this assay is cln2 rad14
Compounds without any hit were thinned out: in the full panel of roughly 79,000, 15% have a hit. The source made the active and inactive calls. Rule as the data show it: active = growth inhibition above about 70%; inactive = the rest.
The categories you may choose from are Yes = active, No = inactive

Would you please look over these solved cases?
compound: O=C(NNc1ccccc1)C(O)C(O)C(O)C(O)C(O)C(O)C(O)CO (stereo unspecified)
group: Yes
--
compound: COc1ccc(C(=O)C(C(c2ccccc2)N2CCc3ccccc3C2)N2CCc3ccccc3C2)cc1 (stereo unspecified)
group: No
--
compound: COc1cc(OC)c(C/C=C/c2ccccc2)cc1O
group: No

Turning now to a further record.
How did this test come out for "COc1cc2cnc(-c3ccccc3)cc2cc1OC" ?
Yes
